# assay-procedure: Half life in dog at 1 mg/kg, iv
# Type: ADME, organism-based, Canis lupus familiaris
# experimental-conditions: in vivo
test-readout: half-life (min)

> print(dat)
                               query.smiles  value.reported
1  COc1ncc(C(F)(F)F)cc1CO[C@H]1[C@H](C(C)(C)C)[C@@H](C(=O)O)N(C(=O)[C@@H]2CCCCO2)[C@H]1c1ccccc1C             384

###

# assay-procedure: Half life in rat at 1 mg/kg, iv
# Type: ADME, organism-based
# experimental-conditions: in vivo
test-readout: half-life (h)

> print(dat)
                               query.smiles  test.readout  value.reported
1  COc1ncc(C(F)(F)F)cc1CO[C@H]1[C@H](C(C)(C)C)[C@@H](C(=O)O)N(C(=O)[C@@H]2CCCCO2)[C@H]1c1ccccc1C     half-life               3
